src = paper PMC9033141

We begin with a simple list: items and their reported Kd.
Biological target: CAII (Homo sapiens);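 note: recombinant human CAII, thermal shift with ANS dye fluorescence, Kd_obs from fitting melting temperature versus ligand concentration, intrinsic values corrected for deprotonated sulfonamide and Zn-bound water fractions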
Construct: made in house; host or cells: E. coli
Assay: biochemical
Type: binding
Conditions: FTSA, pH 7.0, 37 °C; read-out: Observed Dissociation Constant (Kd_obs), CAII
Numbers only; they are read as nM.

Consider the following illustrative entries.
Exercise: Bench note: what Kd did NS(=O)(=O)c1ccc(NCC(CC(=O)NN=Cc2ccccc2)C(=O)NN=Cc2ccccc2)cc1 (stereo not shown) show?
Key: 1800

Exercise: Recorded Kd for Cc1cc(C)n(C(=O)CC(CNc2ccc(S(N)(=O)=O)cc2Cl)C(=O)n2nc(C)cc2C)n1 (stereo not shown) , please?
Key: 500

Exercise: Record request: Kd value, item NS(=O)(=O)c1ccc(NCC(CC(=O)NN=Cc2cccc(Cl)c2)C(=O)NN=Cc2cccc(Cl)c2)cc1 (stereo not shown) [Compound 11a]
Key: 3300

Exercise: Quick one: Kd for CC(=NNC(=O)CC(CNc1ccc(S(N)(=O)=O)cc1Cl)C(=O)NN=C(C)c1ccccc1)c1ccccc1 (stereo not shown) ?
Key: 250

Exercise: Would you kindly share the measured Kd for NS(=O)(=O)c1ccc(NCC(CC(=O)NNC(=S)Nc2ccccc2)C(=O)NNC(=S)Nc2ccccc2)cc1 (stereo not shown) [Compound 23a] ?
Key: 2000

Exercise: If you can, please state the reported Kd value of CCC(C)=NN1C(=O)CC(CNc2ccc(S(N)(=O)=O)cc2Cl)C1=O (stereo not shown) .
Key: 330

Exercise: Param item = NS(=O)(=O)c1ccc(NCC(Cc2n[nH]c(=S)n2-c2ccccc2)c2n[nH]c(=S)n2-c2ccccc2)c(Cl)c1 (stereo not shown) [Compound 25b] ; retrieve measured Kd.
Key: 25

Exercise: Which Kd value belongs to NS(=O)(=O)c1ccc(NCC(CC(=O)NN=Cc2ccc(C(=O)O)cc2)C(=O)NN=Cc2ccc(C(=O)O)cc2)c(Cl)c1 (stereo not shown) [Compound 18b] ?
Key: 1300

---
Exercise: State the recorded Kd for this entry: COc1ccc(C=NNC(=O)CC(CNc2ccc(S(N)(=O)=O)cc2Cl)C(=O)NN=Cc2ccc(OC)cc2)cc1 (stereo not shown) [Compound 14b]
Key: 59

Exercise: Query (molecule): NNC(=O)CC(CNc1ccc(S(N)(=O)=O)cc1)C(=O)NN (stereo not shown) ; field requested: Kd
Key: 14000

Exercise: Query (molecule): CCOC(=O)c1sc(N(CCC(=O)NN)c2ccc(S(N)(=O)=O)cc2)nc1C ; field requested: Kd
Key: 500

Exercise: Field request: Kd | item: Cc1csc(N(CCC(=O)O)c2ccc(S(N)(=O)=O)cc2)n1
Key: 220

Exercise: Could you tell me which Kd is on file for NS(=O)(=O)c1ccc(NCC(CC(=O)NN=Cc2cccc([N+](=O)[O-])c2)C(=O)NN=Cc2cccc([N+](=O)[O-])c2)cc1 (stereo not shown) [Compound 16a] ?
Key: 4000

---

Molecular target: CAVII (Homo sapiens)
Construct: made in house; host or cells: E. coli
Sequence (P43166 whole entry): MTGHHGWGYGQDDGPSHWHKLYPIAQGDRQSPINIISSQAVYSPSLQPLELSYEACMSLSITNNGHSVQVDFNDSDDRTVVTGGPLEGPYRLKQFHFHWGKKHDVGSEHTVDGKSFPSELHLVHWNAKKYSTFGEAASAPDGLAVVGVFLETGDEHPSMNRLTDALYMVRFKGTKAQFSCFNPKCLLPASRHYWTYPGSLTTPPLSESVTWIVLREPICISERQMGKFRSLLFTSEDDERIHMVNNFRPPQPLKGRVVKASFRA
Assay: Fluorescent thermal shift assay (FTSA), CAVII
Format: binding
Settings: FTSA, pH 7.0, 37 °C; read-out: Observed Dissociation Constant (Kd_obs), CAVII
value_type: pKd
Notebook: values listed as pKd are -log10 of the concentration (mol/L).

Below: 7 molecules and their reported pKd.
Exercise: Can you look up the measured pKd of Cc1cc(C)n(C(=O)CC(CNc2ccc(S(N)(=O)=O)cc2Cl)C(=O)n2nc(C)cc2C)n1 (centres unmarked) for me?
Key: 5.00

Exercise: Can you share its pKd? I mean this molecule: Cc1csc(N(CCC(=O)NN)c2ccc(S(N)(=O)=O)cc2)n1
Key: 6.17

Exercise: Which value of pKd has been reported for NS(=O)(=O)c1ccc(NCC(CC(=O)NNC(=S)Nc2ccccc2)C(=O)NNC(=S)Nc2ccccc2)c(Cl)c1 (centres unmarked) [Compound 23b] in the records?
Key: 6.96

Exercise: // returns reported pKd for input Cc1csc(N(CCC(=O)O)c2ccc(S(N)(=O)=O)cc2)n1
Key: 6.60

Exercise: Requested field: pKd. Item: NS(=O)(=O)c1ccc(N(CCC(=O)O)c2nc(-c3ccc(Cl)cc3)c(Cl)s2)cc1
Key: 7.48

Exercise: # get_value(readout='pKd', item= CCOC(=O)c1sc(N(CCC(=O)OC)c2ccc(S(N)(=O)=O)cc2)nc1C )
Key: 6.89

Exercise: Find the recorded pKd belonging to NS(=O)(=O)c1ccc(NCC(CC(=O)NN=Cc2ccccc2)C(=O)NN=Cc2ccccc2)c(Cl)c1 (centres unmarked) and report it.
Key: 6.54

Let us examine a further case.
Exercise: // query pKd value for entry CCOC(=O)c1sc(N(CCC(=O)NN=Cc2ccccc2)c2ccc(S(N)(=O)=O)cc2)nc1C
Key: 6.60

---

Target: CAXIII (Homo sapiens)
Sequence (Q8N1Q1 whole entry): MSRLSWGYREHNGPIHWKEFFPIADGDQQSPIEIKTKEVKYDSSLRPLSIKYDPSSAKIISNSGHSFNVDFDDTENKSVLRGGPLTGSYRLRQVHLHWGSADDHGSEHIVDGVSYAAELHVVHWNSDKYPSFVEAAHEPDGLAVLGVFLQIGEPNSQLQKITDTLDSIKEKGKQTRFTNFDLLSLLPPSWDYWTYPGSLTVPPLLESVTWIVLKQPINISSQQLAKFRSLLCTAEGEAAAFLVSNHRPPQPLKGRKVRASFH
Assay: biochemical
Conditions: Observed Dissociation Constant (Kd_obs), FTSA, pH 7.0, 37 °C
value_type: Kd

Exercise: Any idea what its Kd is? The compound is Cc1ccc(C)n1NC(=O)CC(CNc1ccc(S(N)(=O)=O)cc1Cl)C(=O)Nn1c(C)ccc1C (stereo not drawn) [Compound 19b]
Key: 130 nM

Exercise: Find the recorded Kd belonging to NS(=O)(=O)c1ccc(NCC(CC(=O)NN=Cc2ccccc2Cl)C(=O)NN=Cc2ccccc2Cl)c(Cl)c1 (stereo not drawn) [Compound 10b] and report it.
Key: 130 nM

Exercise: Return reported Kd; argument: NS(=O)(=O)c1ccc(NCC(CC(=O)NN=Cc2ccccc2)C(=O)NN=Cc2ccccc2)cc1 (stereo not drawn)
Key: 7700 nM

---

Biological target: CAVA (Homo sapiens, UniProt P35218)
Construct: made in house; host or cells: E. coli
Sequence (P35218 39-305): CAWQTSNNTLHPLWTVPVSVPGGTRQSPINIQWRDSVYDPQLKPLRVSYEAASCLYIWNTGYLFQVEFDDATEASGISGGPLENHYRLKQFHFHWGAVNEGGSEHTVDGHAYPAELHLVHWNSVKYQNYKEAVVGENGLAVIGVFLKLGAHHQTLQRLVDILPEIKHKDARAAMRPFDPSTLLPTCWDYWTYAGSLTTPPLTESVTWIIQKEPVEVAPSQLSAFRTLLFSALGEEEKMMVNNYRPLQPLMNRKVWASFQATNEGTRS
Test: Fluorescent thermal shift assay (FTSA), CAVA
Format: binding
Conditions: FTSA, pH 7.0, 37 °C; read-out: Observed Dissociation Constant (Kd_obs), CAVA
Entries and their Kd

Sample answers from the record:
Exercise: Endpoint output: Kd of CCOC(=O)c1sc(N(CCC(=O)O)c2ccc(S(N)(=O)=O)cc2)nc1C . Value?
Key: ≥ 200 µM

Exercise: What does the data say about its Kd? Entry: Cc1csc(N(CCC(=O)NN=Cc2ccccc2)c2ccc(S(N)(=O)=O)cc2)n1
Key: ≥ 200 µM

Exercise: So what does the record say about Kd for Cc1csc(N(CCC(=O)O)c2ccc(S(N)(=O)=O)cc2)n1 ?
Key: ≥ 200 µM

Alright, here's another compound for you.
Exercise: GET /values?readout=Kd&item= Cc1csc(N(CCC(=O)NN)c2ccc(S(N)(=O)=O)cc2)n1
Key: ≥ 200 µM

---

As an illustration, consider measured Kd for compounds on CAIV (Homo sapiens).
Sequence (P22748 19-312): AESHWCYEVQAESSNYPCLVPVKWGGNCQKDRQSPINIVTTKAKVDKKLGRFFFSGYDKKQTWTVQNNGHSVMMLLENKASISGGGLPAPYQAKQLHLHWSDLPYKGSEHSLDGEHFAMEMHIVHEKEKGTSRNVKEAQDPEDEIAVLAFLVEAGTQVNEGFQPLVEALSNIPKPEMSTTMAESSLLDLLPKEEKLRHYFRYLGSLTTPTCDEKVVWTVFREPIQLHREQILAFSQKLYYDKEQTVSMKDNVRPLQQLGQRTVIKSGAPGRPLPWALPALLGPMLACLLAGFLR
# number only, unit nM dropped from output

Exercise: Request - read-out Kd | tested on CAIV (Homo sapiens) | compound NS(=O)(=O)c1ccc(NCC(CC(=O)NN=Cc2ccc(C(=O)O)cc2)C(=O)NN=Cc2ccc(C(=O)O)cc2)c(Cl)c1 (stereo not shown) [Compound 18b]
Key: 13000

Exercise: Form field: Kd recorded for Cc1csc(N(CCC(=O)O)c2ccc(S(N)(=O)=O)cc2)n1 with CAIV (Homo sapiens) (enter value)
Key: 1400

Exercise: Notebook entry, CAIV (Homo sapiens) assay: Kd of NS(=O)(=O)c1ccc(N(CCC(=O)O)c2nc(-c3ccc(Cl)cc3)c(Cl)s2)cc1 = ?
Key: 3300

Exercise: Fill in the recorded Kd for this compound, with CAIV (Homo sapiens) as test system: CCOC(=O)c1sc(N(CCC(=O)NN)c2ccc(S(N)(=O)=O)cc2)nc1C
Key: 2800

Exercise: API: value(readout=Kd, system=CAIV (Homo sapiens)) for record NS(=O)(=O)c1ccc(NCC(CC(=O)NNC(=S)Nc2ccccc2)C(=O)NNC(=S)Nc2ccccc2)c(Cl)c1 (stereo not shown) [Compound 23b]
Key: 1000

Exercise: What reported Kd corresponds to NS(=O)(=O)c1ccc(NCC(Cc2n[nH]c(=S)n2-c2ccccc2)c2n[nH]c(=S)n2-c2ccccc2)c(Cl)c1 (stereo not shown) [Compound 25b] on CAIV (Homo sapiens)?
Key: 1400

Now turn to the next compound.
Exercise: # get_value(readout= Kd, system= CAIV (Homo sapiens)) for Cc1cc(C)n(C(=O)CC(CNc2ccc(S(N)(=O)=O)cc2Cl)C(=O)n2nc(C)cc2C)n1 (stereo not shown)
Key: 2000

---

Biological target: CAI (Homo sapiens, UniProt P00915)
Construct: made in house; host or cells: E. coli
Sequence (P00915 whole entry): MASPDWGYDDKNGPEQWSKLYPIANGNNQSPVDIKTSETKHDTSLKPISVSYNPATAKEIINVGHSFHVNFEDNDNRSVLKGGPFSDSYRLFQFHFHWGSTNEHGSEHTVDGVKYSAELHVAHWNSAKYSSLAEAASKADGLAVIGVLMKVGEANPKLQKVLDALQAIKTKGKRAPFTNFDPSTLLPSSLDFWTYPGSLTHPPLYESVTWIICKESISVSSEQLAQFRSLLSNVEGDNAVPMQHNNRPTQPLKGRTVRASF
Test: biochemical
Assay type: binding
Conditions: 37 °C; calculated (Equation 5)
Intrinsic Gibbs energy change (ΔGint), CAI overview
Expressed in kJ/mol, but write only the number.

Consider the reported Intrinsic Gibbs energy change (ΔGint), CAI for these molecules:
Exercise: Short answer please: Intrinsic Gibbs energy change (ΔGint), CAI, CAI (Homo sapiens, UniProt P00915), entry CCOC(=O)c1sc(N(CCC(=O)NN)c2ccc(S(N)(=O)=O)cc2)nc1C
Key: -51.2

Exercise: What measured Intrinsic Gibbs energy change (ΔGint), CAI is associated with Cc1csc(N(CCC(=O)O)c2ccc(S(N)(=O)=O)cc2)n1 on CAI (Homo sapiens, UniProt P00915)?
Key: -62.9

Exercise: Lookup: Intrinsic Gibbs energy change (ΔGint), CAI / CAI (Homo sapiens, UniProt P00915) / NS(=O)(=O)c1ccc(N(CCC(=O)O)c2nc(-c3ccc(Cl)cc3)c(Cl)s2)cc1
Key: -64.8

Attention now turns to another entry.
Exercise: Identify the measured Intrinsic Gibbs energy change (ΔGint), CAI of CCOC(=O)c1sc(N(CCC(=O)OC)c2ccc(S(N)(=O)=O)cc2)nc1C for CAI (Homo sapiens, UniProt P00915).
Key: -52.3
